study-system: acetylcholinesterase (Electrophorus electricus, UniProt O42275)
Sequence (O42275 24-633): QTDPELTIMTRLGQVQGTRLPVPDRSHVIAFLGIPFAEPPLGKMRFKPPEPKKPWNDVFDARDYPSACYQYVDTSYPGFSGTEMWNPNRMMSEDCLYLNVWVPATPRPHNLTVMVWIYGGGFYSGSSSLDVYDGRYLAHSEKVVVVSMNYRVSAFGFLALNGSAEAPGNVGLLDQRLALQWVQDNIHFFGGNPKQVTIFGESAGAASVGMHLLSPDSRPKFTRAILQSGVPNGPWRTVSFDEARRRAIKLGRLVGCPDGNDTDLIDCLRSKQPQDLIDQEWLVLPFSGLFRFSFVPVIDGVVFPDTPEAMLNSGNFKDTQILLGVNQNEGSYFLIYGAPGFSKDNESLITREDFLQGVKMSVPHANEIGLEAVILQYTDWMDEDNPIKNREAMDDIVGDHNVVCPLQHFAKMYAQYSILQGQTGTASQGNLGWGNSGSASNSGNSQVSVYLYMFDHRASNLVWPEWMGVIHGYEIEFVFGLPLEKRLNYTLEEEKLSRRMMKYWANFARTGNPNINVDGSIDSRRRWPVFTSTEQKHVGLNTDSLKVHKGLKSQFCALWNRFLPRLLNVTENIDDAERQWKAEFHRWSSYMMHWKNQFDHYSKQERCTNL

>  <compound>
COc1cc2ccc(=O)oc2cc1O [SC, 7-hydroxy-6 methoxycoumarin]

>  <IC50, µM>
270

$$$$
